Target: Androgen receptor (Homo sapiens, UniProt P10275)
Sequence (P10275 whole entry): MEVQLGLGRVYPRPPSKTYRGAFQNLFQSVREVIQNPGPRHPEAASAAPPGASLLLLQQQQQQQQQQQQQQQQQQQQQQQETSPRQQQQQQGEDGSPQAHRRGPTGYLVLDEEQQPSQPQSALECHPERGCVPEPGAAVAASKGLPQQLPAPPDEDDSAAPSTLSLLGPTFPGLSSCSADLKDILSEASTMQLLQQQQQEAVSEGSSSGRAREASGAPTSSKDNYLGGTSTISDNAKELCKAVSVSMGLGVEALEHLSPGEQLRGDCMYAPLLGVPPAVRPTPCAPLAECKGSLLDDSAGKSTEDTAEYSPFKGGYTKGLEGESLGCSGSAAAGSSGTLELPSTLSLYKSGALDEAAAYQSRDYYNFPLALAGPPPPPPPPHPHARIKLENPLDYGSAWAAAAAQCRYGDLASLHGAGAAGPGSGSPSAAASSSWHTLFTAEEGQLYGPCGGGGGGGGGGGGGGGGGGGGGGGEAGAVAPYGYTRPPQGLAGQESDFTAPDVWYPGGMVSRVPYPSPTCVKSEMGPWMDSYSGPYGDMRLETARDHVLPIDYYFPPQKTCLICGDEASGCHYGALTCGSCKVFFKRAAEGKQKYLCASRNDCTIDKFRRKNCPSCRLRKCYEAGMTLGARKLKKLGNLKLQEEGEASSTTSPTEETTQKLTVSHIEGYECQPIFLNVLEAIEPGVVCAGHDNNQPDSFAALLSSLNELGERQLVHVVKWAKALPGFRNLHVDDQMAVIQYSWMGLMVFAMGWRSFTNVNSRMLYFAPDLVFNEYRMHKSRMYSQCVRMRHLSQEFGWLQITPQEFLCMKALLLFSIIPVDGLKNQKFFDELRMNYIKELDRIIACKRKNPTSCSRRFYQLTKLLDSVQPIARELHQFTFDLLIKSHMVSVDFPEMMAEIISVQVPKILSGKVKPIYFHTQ
Test: Binding affinity for androgen receptor in human MDA-453 cells
recorded endpoint: pKi
pKi here: minus log base 10 of the concentration, concentration in moles per litre.

> print(dat)
                         compound.structure  recorded.endpoint  numeric.value
1  O=C1[C@@H]2C3C=CC(C3)[C@@H]2C(=O)N1c1ccc(Cl)c(Cl)c1                pKi           6.80
2  O=C1[C@@H]2C3C=CC([C@H]4C[C@@H]34)[C@@H]2C(=O)N1c1ccc([N+](=O)[O-])c2ccccc12                pKi           8.52
3  O=C1[C@@H]2C3C=CC(CC3)[C@@H]2C(=O)N1c1ccc(Cl)c(Cl)c1                pKi           7.08

Now for the molecule whose pKi we want.
Asked: Tell us which pKi value is on record for `Cc1cc(N2C(=O)[C@@H]3C4C=CC([C@H](O)[C@@H]4O)[C@@H]3C2=O)ccc1Br`
Given back: 6.36
